assayExplanation: Effect on forskolin stimulated adenylate cyclase activity at 5-hydroxytryptamine 1A receptor of guinea pig hippocampus.
pEC50: −log10 of the molar value.

querySmiles: COc1ccc2[nH]cc(C[C@H]3CCCN3C)c2c1
pEC50: 7.46

* * *

assayExplanation: Effect on forskolin stimulated adenylate cyclase activity at 5-hydroxytryptamine 1A receptor of guinea pig hippocampus.

querySmiles: COc1ccc2[nH]cc(C[C@@H]3CCCN3C)c2c1
u: nM
IC50: 140

* * *

assayExplanation: Binding affinity against 5-hydroxytryptamine 1A receptor

querySmiles: COc1ccc2[nH]cc(C[C@H]3CCCN3C)c2c1
IC50: 0.01 µM

These entries and their values trace back to BindingDB's records for doi:10.1021/jm00101a032.
